- System: S. Typhi PhoP-promoter GFP reporter, fluorescence, 4 h
- EXPERIMENTAL_DETAILS: PhoP regulon inhibitor project modified counter assay, GFP fluorescence readout, dose response (AID 1985)
ASSAY_READOUT: pIC50
Bear in mind: pIC50 is minus log10 of a mol/L concentration; give just that figure.

Q: // lookup pIC50 for "COc1ccc(/C=C/c2cc[n+](C(=O)Cc3ccccc3)cc2)cc1"
Ans: 3.97

Q: What would you report for "Oc1ccc(/C=N/Nc2nccnc2Cl)c(O)c1" ?
Ans: 4.18

Q: What would you report for "CCCCCCCCCCC[N+](C)(C)CC/C=C1/c2ccccc2Sc2ccc(Cl)cc21" ?
Ans: 4.50

Q: What would you report for "O=C(CSc1ccccn1)Nc1nonc1[N+](=O)[O-]" ?
Ans: 4.36

Q: What would you report for "COc1cc(/C=C2/C(=O)NN(c3ccc(C)c(Cl)c3)C2=O)cc([N+](=O)[O-])c1O" ?
Ans: 4.33

Q: What would you report for COC(=O)C1C(O)C(C)C(O)C(C)/C=C\C=C(/C)C(=O)Nc2c(C)c(OC(C)=O)c3c(c2O)C(=O)C(C)=C2OCOC(=C23)/C(C)=C/C(C)(O)C(O)C(C)C1O (configuration not stated) ?
Ans: 4.61

Q: What would you report for "COc1cc(C(=O)O/N=C2\C=CC(=O)C(C)=C2)cc(OC)c1OC" ?
Ans: 3.88

Q: What would you report for "O=C(N/N=C/c1c(O)ccc2ccccc12)c1ccc(CO)nc1" ?
Ans: 4.10

Q: What would you report for CC1CC(=O)c2c(cc3c(-c4c(O)cc(O)c5c(O)c6c(cc45)OC(C)CC6=O)c(O)cc(O)c3c2O)O1 (configuration not stated) ?
Ans: 4.57

Q: What would you report for "CN(C)CC/C=C1\c2ccccc2Sc2cc(F)c(Cl)cc21" ?
Ans: 4.18

Q: What would you report for "O=[N+]([O-])c1cccc2c(N3CCCC3)ccnc12" ?
Ans: 4.76

Q: What would you report for "O=C(N/N=C/c1cc(Cl)ccc1O)c1ccncc1" ?
Ans: 4.66
